Please provide measured EC50 for the entries that follow.
Target: T1, post-fusion F protein from RSV strain 18537 B (human respiratory syncytial virus …, UniProt P13843 26-109; P13843 147-513)
T1 construct: also called RSV 18537 B; RSV 18537 B post-fusion F
T1 sequence (P13843 26-109, chain 1 of 2): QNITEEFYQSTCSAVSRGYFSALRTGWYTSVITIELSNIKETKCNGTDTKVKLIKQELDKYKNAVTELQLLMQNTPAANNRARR
T1 sequence (P13843 147-513, chain 2 of 2): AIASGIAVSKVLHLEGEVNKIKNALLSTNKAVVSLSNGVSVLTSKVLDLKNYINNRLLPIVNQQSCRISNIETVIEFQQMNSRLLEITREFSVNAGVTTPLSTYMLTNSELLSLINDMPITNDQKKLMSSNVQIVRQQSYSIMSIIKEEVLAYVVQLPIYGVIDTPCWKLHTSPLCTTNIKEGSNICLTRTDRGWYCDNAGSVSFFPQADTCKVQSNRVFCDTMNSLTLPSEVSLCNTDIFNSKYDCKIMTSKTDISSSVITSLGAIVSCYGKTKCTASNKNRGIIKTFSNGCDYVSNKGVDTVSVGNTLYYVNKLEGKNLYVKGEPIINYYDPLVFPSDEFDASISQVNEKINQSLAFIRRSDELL
Test: ELISA on coated antigen
Write the answer as a number in µg/mL, unit excluded.

Input line: Please give the measured EC50 for this binder: mAb 10F13 (antibody, V domains shown, The printed light chain has an unusual N-terminal part) VH: QVQLVQSGGGVVQPGRSLRLSCAASGFPFRIYSMHWVRQAPGKGLEWVALISYDGTNKQYADSVNGRFTISRDNSENTMYLQMNSLRPEDTAIYYCATDIVELVTATDYWGQGTLVTVSS VL: AVVTQSPGTLSLSPGDRATLSCRASQSVSTSLGWYQQKPGQSPRLLIYGTSRRATGVPDRFSGSGSETDFTLTISRLEPEDFSVYYCQQYGSSPYTFGQGTRLEIK
Output line: 0.021

Input line: What does the record list as EC50 for mAb 13A8 (antibody, V domains shown) VH: QVQLVESGGGVVQPGKSLRLSCAASGYIFSSYDMHWVRQAPGKGLEWVAVISFDGTTQHYADSVRGRFTVSRDNSQNTVFLQMNSLRPEDTAVYYCVKEYVIVSTFFDYWGQGTLVTVSS VL: DIVMTQSPSSLSASVGDRVTITCRASQGIRNALGWYQHKPGKAPKVLIYAASRLQSGVPSRFSGSGSGTDFTLTISSLQPEDFATYYCLQDFNYPWTFGHGTKVEIK ?
Output line: 0.064

Input line: I am curious: what EC50 value has been reported for motavizumab (antibody, V domains shown) VH: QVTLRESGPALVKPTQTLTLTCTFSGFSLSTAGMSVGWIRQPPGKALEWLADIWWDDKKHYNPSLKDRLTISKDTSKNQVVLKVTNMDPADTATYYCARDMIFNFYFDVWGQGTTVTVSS VL: DIQMTQSPSTLSASVGDRVTITCSASSRVGYMHWYQQKPGKAPKLLIYDTSKLASGVPSRFSGSGSGTEFTLTISSLQPDDFATYYCFQGSGYPFTFGGGTKVEIK ?
Output line: 0.035
